Each recorded value in this set is attributed to patent US20250270341A1.

Target: T1, Full length human CD98hc on CHO cells (human)
T1 construct: CHO cells stably overexpressing it; also called CHO-human CD98hc; CHO-huCD98hc
T1 chain: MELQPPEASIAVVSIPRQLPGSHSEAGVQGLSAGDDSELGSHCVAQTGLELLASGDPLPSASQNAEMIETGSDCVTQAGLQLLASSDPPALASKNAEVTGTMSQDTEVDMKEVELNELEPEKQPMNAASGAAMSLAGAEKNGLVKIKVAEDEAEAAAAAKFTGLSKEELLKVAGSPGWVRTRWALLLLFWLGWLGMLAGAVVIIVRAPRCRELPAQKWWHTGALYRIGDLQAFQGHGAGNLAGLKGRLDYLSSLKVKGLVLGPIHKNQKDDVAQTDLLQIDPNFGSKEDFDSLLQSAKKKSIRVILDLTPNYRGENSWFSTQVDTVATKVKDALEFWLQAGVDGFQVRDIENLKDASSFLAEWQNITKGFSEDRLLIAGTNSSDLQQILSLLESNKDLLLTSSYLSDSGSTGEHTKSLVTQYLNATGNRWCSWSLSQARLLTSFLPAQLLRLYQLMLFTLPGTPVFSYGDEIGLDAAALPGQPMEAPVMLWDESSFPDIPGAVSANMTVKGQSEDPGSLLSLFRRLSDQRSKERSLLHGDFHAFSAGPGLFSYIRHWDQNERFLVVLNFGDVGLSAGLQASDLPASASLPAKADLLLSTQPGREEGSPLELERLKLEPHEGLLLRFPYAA
Test: FACS, hybridoma supernatant
measured.metric: MFI ratio over secondary antibody
Answer with a number only.

Fill in MFI ratio over secondary antibody for record CD98HC.04.063 (antibody, V domains shown, hybridoma IgG) VH: EVKLEESGGGLVQPGGSMILSCVASGFTFSNSWMNWVRQSPEKGLEWVAEIRLRSNNYATHYAESVKGRFTISRDDSKSTVYLQMNNLRAEDTGIYYCSRGDPGAYWGQGTLVTVSA VL: DIQMTQSSSYLSVSLGNRVTITCKASDHIKNWLAWFQQKPGNAPRLLISGATILETGVPSRFSGSGSGKDYTLSITSLQTEDVATYYCQQYWSTPYTFGGGTKLEIK 34.4

Fill in MFI ratio over secondary antibody for record CD98HC.03.031 (antibody, V domains shown, hybridoma IgG) VH: QVQLQQSGAELVRPGVSVKISCKASGYTFTDYAMHWVKQSHAKSLEWIGVISTYYGDTTYNQKFKDKATMTVDKSSSTAYLELARLTSEDSAIYYCARVWLLSYAMDNWGQGTSVTVSS VL: DIVMTQSQRFMSTSVGDGVRITCKASQNVRTAVAWYQQKPGQSPKALINLAPNRHTGVPDRFTARGSGTDFTLTISNVQSEDLADYFCLQHWNYPLTFGAGTKLELK 38.9

Fill in MFI ratio over secondary antibody for record CD98HC.04.011 (antibody, V domains shown, hybridoma IgG) VH: DVQLQESGPDLVKPSQSLSLTCSVTVYSFTSVYSWHWIRQFPGNKLEWMGYIHDSGTTNYNPSLKSRISVTRDTSKNQFFLQLNSVTTEDTATYYCARGRPYGYDGFAYWGQGTLVTVSA VL: DIQMTQSSSYLSVSLGDRVTITCKASDHINNWLAWYQQKPGNAPRLLITGAVNLETGVPSRFSGSGSGKDYTLSITSLQTEDVATYYCQQYWSIPRTFGGGTNLEIK 31
